Cited source: PubChem BioAssay (NCI)

Test: NCI Yeast Anticancer Drug Screen. Data for the rad50 strain (AID 155);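 also: 0% = growth of vehicle-only cultures of the same strain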
Settings: S. cerevisiae rad50 strain growth inhibition; at 50.0 µM; stronger effect = higher value
Method: Growth inhibition of yeast strains with defined genetic alterations is measured as a screen for potential anti-cancer activity. Selected strains with alterations in DNA damage repair or cell cycle control were exposed to compounds and growth inhibition was measured relative to vehicle treated controls. The strain used in this assay is rad50
About 79,000 compounds went through this panel and 15% of them were active in at least one assay; those are over-represented in the sample as a whole. Where a SMILES comes first, the peptide text is derived from it. Bridges are numbered along the chain shown (N, C = ends).
Please provide measured growth inhibition for the entries that follow.
Express it in %; write the number only.

q: Could you tell me which growth inhibition is on file for `CCN(CC)C(=O)CS(=O)(=O)c1ccc(N)cc1` ?
a: 3.55

q: Could you tell me which growth inhibition is on file for `CN1CCc2c1nc(-c1ccc(Cl)cc1)c1c2N(C)CC1` ?
a: 5.15

q: Could you tell me which growth inhibition is on file for CN1CCN(CN2C(=O)C3C4C=CC(C3C2=O)C2C(=O)N(CN3CCN(C)CC3)C(=O)C42)CC1 (centres undefined) ?
a: 18.1

q: Could you tell me which growth inhibition is on file for `N#CC(CC(=O)O)=C(c1ccccc1)c1ccccc1` ?
a: -6.75

q: Could you tell me which growth inhibition is on file for Cn1cnc2c([nH]c(=O)n2C2OC(CO)C(O)C2O)c1=N (centres undefined) ?
a: 13.5

q: Could you tell me which growth inhibition is on file for O=C1NC(N2CCCC(CO)C2)=N/C1=C\c1ccccc1 (centres undefined) ?
a: -15.6

q: Could you tell me which growth inhibition is on file for `CC(C)c1ccc(O)c(C(C)(C)C)c1` ?
a: -25.5

q: Could you tell me which growth inhibition is on file for CC(=O)NC(C=O)C(O)C(O)C(O)CO (centres undefined) ?
a: -29.4

q: Could you tell me which growth inhibition is on file for CCC(C)CCC(=O)C(C)C(=O)O (centres undefined) ?
a: 5.7

q: Could you tell me which growth inhibition is on file for C=C1C(O)CCC2(C)C1CCC1C2CCC2(C)C(C(C)CCCC(C)C)CCC12 (centres undefined) ?
a: -5

q: Could you tell me which growth inhibition is on file for COC(=O)/C(=N\NC(C)(C)C)C(C(=O)OC)C(=O)C(=O)Nc1cc(Cl)ccc1Cl (centres undefined) ?
a: 6.7

q: Could you tell me which growth inhibition is on file for `c1ccc2nc3c(nc2c1)sc1nc2ccccc2n13` ?
a: 9.65

q: Could you tell me which growth inhibition is on file for CCOC(=O)C1CSSCC(N)C(=O)N1 (stereo not drawn) (H-Cys-Cys-OEt; disulfide 1-2; configuration not given here) ?
a: 5.65

q: Could you tell me which growth inhibition is on file for O=C1CSC(c2ccc([N+](=O)[O-])cc2)N1c1nncs1 (centres undefined) ?
a: -10.9

q: Could you tell me which growth inhibition is on file for `COC1(OC)C=NNc2nccn21` ?
a: 2.05

q: Could you tell me which growth inhibition is on file for `CNNC(=NS(=O)(=O)c1cc(C#N)c(NNC)cc1S)NNC` ?
a: 6.05

q: Could you tell me which growth inhibition is on file for O=C1N(c2ccccc2)C2(O)C(=O)c3ccccc3C2(O)N1c1ccccc1 (centres undefined) ?
a: -10

q: Could you tell me which growth inhibition is on file for `COCCCNc1ccc([N+](=O)[O-])cn1` ?
a: -21.4

q: Could you tell me which growth inhibition is on file for `CN(CCNC(=O)NC1CCCCC1)c1ccccc1` ?
a: 3.45

q: Could you tell me which growth inhibition is on file for C#CC1(O)CCC2[C@@H]3CCc4cc(Oc5nc(F)nc(-c6c7ccccc7cn6C)n5)ccc4C3CC[C@@]21C (some centres undefined) ?
a: 37.5

q: Could you tell me which growth inhibition is on file for Cc1ccc(C2SCC(=O)N2c2ccc(-c3ccc(-n4c(-c5ccccc5)nc5ccccc5c4=O)cc3)cc2)cc1 (centres undefined) ?
a: 14

q: Could you tell me which growth inhibition is on file for `Nc1ccc2cc(S(=O)(=O)O)cc(O)c2c1` ?
a: 28.8

q: Could you tell me which growth inhibition is on file for `CC(=O)c1ccco1` ?
a: 17.8

q: Could you tell me which growth inhibition is on file for `Nn1c(-c2ccccc2)n[nH]c1=O` ?
a: 18.7
